# system: UniProt:P0A725
# test: Inhibition of Escherichia coli LpxC
# assay conditions: read-out: Ki
observable: Ki (nM)
Could you give me the number in nM? Just the number is fine.

Notebook: C[C@@H](O)[C@H](NC(=O)c1ccc(C#CC#Cc2ccccc2)cc1)C(=O)NO , Ki read as 0.18

----------
# system: UDP-3-O-acyl-N-acetylglucosamine deacetylase (Escherichia coli K-12, UniProt P0A725)
# Sequence (P0A725 whole entry): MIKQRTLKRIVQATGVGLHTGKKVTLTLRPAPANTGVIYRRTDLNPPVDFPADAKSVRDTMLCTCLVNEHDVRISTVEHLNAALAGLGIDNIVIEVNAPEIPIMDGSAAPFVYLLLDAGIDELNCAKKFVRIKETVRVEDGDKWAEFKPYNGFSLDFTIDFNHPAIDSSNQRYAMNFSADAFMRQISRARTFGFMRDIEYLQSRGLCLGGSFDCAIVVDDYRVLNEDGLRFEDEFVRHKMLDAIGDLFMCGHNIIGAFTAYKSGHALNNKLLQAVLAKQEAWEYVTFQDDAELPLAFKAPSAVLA
# test: Inhibition of Escherichia coli LpxC
# assay conditions: read-out: Ki(app)
observable: Ki (nM)
Could you give me the number in nM? Just the number is fine.

Ki value, target or system UDP-3-O-acyl-N-acetylglucosamine deacetylase (Escherichia coli K-12, UniProt P0A725), for C[C@@H](O)[C@H](NC(=O)c1ccc(C#CC#Cc2ccccc2)cc1)C(=O)NO : 0.55
